molecular target: T1, TBD-6 (LC I93A); test: competition ELISA, peptide vs Fab binding to captured biotin-TROP2
T1 construct: Fab; also called LC I93A mutant
Where no end group is shown, it is not given here.
metric: IC50 (nM)

1) IDFCLLYDWPICGR (cysteine pairing not given here; also: biotinylated (site not given here)) [Peptide-17] : 760
2) IDFCAVYKWPVCQV (cysteine pairing not given here; also: biotinylated (site not given here)) [Peptide-2] : 1100

(A) VDFCKIYAWPICGS (cysteine pairing not given here; also: biotinylated, site not given here) [Peptide-4]
(B) VDFCKIYSWPVCHQ (cysteine pairing not given here; also: biotinylated (site not given here)) [Peptide-25]
Of A and B , whose reported IC50 is the larger number? Write the label of whichever entry you select. B
(B: 1030 nM, A: 400 nM)
